# Procedure summary: Cmax in Balb/c mouse at 10 mg/kg, po
# Format: ADME, organism-based
# Parameters: dose 10 mg/kg, route oral
# Cond: in vivo
Value kind: Cmax (µM)
Dear colleague, please return just the value in µM, with no unit written.

INPUT: Looking for the measured Cmax of "COC(=O)N(CC(=O)O)Cc1cc(OCc2nc(-c3ccc(Cl)cc3)oc2C)ccc1F" , can you help?
OUTPUT: 22.7

###

# Procedure summary: AUC (0 to 8 hrs) in cynomolgus monkey at 1 mg/kg, iv
# Assay type: ADME, organism-based, Macaca fascicularis
# Parameters: time < 8 hr, dose 1 mg/kg, route intravenous
# Cond: in vivo
Value kind: AUC(0-t) at 8 h (µM·h)
Value expressed in µM·h; do not type the unit.

INPUT: // AUC(0-t) at 8 h lookup, key: "COC(=O)N(CC(=O)O)Cc1cc(OCc2nc(-c3ccc(Cl)cc3)oc2C)ccc1F"
OUTPUT: 7.5

###

# Procedure summary: Oral bioavailability in dog at 2 mg/kg
# Format: ADME, organism-based, Canis lupus familiaris
# Cond: in vivo
Value kind: bioavailability (%)
Quick reminder: number only, in %, skip the unit.

INPUT: // lookup bioavailability for "COC(=O)N(CC(=O)O)Cc1cc(OCc2nc(-c3ccc(Cl)cc3)oc2C)ccc1F"
OUTPUT: 59

###

# Procedure summary: Half life in Sprague-Dawley rat at 4 mg/kg, iv
# Format: ADME, organism-based
# Cond: in vivo
Value kind: half-life (h)
Note: unit h is implicit; provide only the numeric part.

INPUT: For "COC(=O)N(CC(=O)O)Cc1cc(OCc2nc(-c3ccc(Cl)cc3)oc2C)ccc1F" , what is its reported half-life?
OUTPUT: 3.3

###

# Assay target: Peroxisome proliferator-activated receptor gamma (Homo sapiens)
# Sequence (P37231 whole entry): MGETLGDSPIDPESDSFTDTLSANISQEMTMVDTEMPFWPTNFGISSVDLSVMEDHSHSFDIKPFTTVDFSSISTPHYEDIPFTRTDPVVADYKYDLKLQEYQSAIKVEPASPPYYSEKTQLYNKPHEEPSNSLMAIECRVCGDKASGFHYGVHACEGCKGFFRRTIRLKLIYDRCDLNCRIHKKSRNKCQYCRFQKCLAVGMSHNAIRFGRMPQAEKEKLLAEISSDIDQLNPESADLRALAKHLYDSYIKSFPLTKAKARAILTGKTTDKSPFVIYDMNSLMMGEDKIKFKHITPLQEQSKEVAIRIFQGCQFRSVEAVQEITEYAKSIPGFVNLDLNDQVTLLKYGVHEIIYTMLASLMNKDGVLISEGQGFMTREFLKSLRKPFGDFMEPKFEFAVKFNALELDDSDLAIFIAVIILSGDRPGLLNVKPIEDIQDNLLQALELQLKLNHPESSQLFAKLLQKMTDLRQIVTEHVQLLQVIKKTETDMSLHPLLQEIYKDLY
# Procedure summary: Binding affinity to human GST-tagged PPAR-gamma LBD expressed in Escherichia coli BL21 after 30 mins in presence of fluorescein ligand FLA-A by fluorescence polarization assay
pIC50: −log10 of the molar value.
Some molecules, each annotated with its measured pIC50.

Examples from the recorded data:
COC(=O)N(CC(=O)O)Cc1cc(F)cc(OCc2nc(-c3ccc(Cl)cc3)oc2C)c1 = < 4.82
COC(=O)N(CC(=O)O)Cc1ccc(F)c(OCc2nc(-c3ccc(Cl)cc3)oc2C)c1 = < 4.82
COC(=O)N(CC(=O)O)Cc1cc(OCc2nc(-c3ccc(Cl)cc3)oc2C)ccc1F = < 4.01

Now for the molecule whose pIC50 we want.
INPUT: Reported pIC50, molecule "COC(=O)N(CC(=O)O)[C@@H](C)c1cccc(OCc2nc(-c3ccc(Cl)cc3)oc2C)c1" : ____
OUTPUT: < 4.82

Data origin, for the record: ChEMBL document CHEMBL3826929
